Recorded MIC for the following compounds
Tested on: Staphylococcus aureus
Protocol summary: Antibacterial activity against methicillin-resistant Staphylococcus aureus 16-34 clinical isolate after 18 hrs by agar dilution method
Assay type: functional
Condition: 16-34, 18 h
Quick reminder: number only, in µg/mL, skip the unit.

Worked examples, 2 compounds total:
• COc1ccc2c(c[n+]3c4c2cc(Cc2ccc(F)cc2F)c2c5c(cc(c24)CC3)OCO5)c1OC.[Br-] = 2
• C[C@H]1COc2c(N3CCN(C)CC3)c(F)cc3c(=O)c(C(=O)O)cn1c23.C[C@H]1COc2c(N3CCN(C)CC3)c(F)cc3c(=O)c(C(=O)O)cn1c23.O = 32

The reported MIC of the compound COc1ccc2c(c[n+]3c4c2cc(Cc2ccccc2C)c2c5c(cc(c24)CC3)OCO5)c1OC.[Br-] was 2

// COc1ccc2c(c[n+]3c4c2cc(Cc2ccccc2)c2c5c(cc(c24)CC3)OCO5)c1OC.[Br-] : MIC value = 4

###

Protocol summary: Toxicity in iv dosed Kunming mouse administered as single dose measured for 7 days
Assay type: organism-based
Condition: in vivo
Reported LD50 at 168 h values for a set of compounds
Give the value, in units of mg/kg, as a plain number.

• COc1ccc2c(c[n+]3c4c2cc(Cc2ccccc2C)c2c5c(cc(c24)CC3)OCO5)c1OC.[Br-] = 65.6

Proceeding to the next compound to report its LD50 at 168 h.
Entry COc1ccc2c(c[n+]3c4c2cc(C(C)c2ccccc2)c2c5c(cc(c24)CC3)OCO5)c1OC.[Br-] (configuration not stated) ; LD50 at 168 h = 41.2

###

Protocol summary: AUC (0 to t) in Sprague-Dawley rat at 5 mg/kg, po administered as single dose
Format: ADME, organism-based
Condition: in vivo
Quantity measured: AUC(0-t)

Lab note: measured AUC(0-t) of COc1ccc2c(c[n+]3c4c2cc(Cc2ccccc2C)c2c5c(cc(c24)CC3)OCO5)c1OC.[Br-] was 28.3 ng·h/mL

###

Protocol summary: Oral bioavailability in Sprague-Dawley rat at 5 mg/kg administered as single dose
Type: ADME, organism-based
Condition: in vivo
Quantity measured: bioavailability (%)
Your answer is read as %, so omit the unit and give the number.

Consider COc1ccc2c(c[n+]3c4c2cc(Cc2ccccc2C)c2c5c(cc(c24)CC3)OCO5)c1OC.[Br-] . Its measured bioavailability is 0.8

###

Protocol summary: Mean residence time (0 to t) in Sprague-Dawley rat at 5 mg/kg, po administered as single dose
Type: ADME, organism-based
Condition: in vivo
Quantity measured: MRT last (h)
Respond with the bare value in h.

// MRT last lookup, compound = COc1ccc2c(c[n+]3c4c2cc(Cc2ccccc2C)c2c5c(cc(c24)CC3)OCO5)c1OC.[Br-] , result: 2.1
